Tested on: RL95-2 (Endometrial Carcinoma)
Test: Bliss excess, mean over the matrix (fraction); higher = more synergy;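 also: after 72 h of two-drug dosing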
outcomeMeasure: Bliss excess
Give your answer as a number; write no unit.

Guide cases for Bliss excess, answers given:
molecule="Cn1cnc2c(F)c(Nc3ccc(Br)cc3Cl)c(C(=O)NOCCO)cc21 [Selumetinib] + C[C@@H]1COCCN1C2=NC(=NC(=C2)C3(CC3)[S@](=N)(=O)C)C4=C5C=CNC5=NC=C4 [AZD6738] (first compound max 10 µM, 7x7, partner max 10 µM)" reportedmeasurement=0.0152
molecule="C=CCn1c(=O)c2cnc(Nc3ccc(N4CCN(C)CC4)cc3)nc2n1-c1cccc(C(C)(C)O)n1 [AZD1775] + O=C(c1cc(Cc2n[nH]c(=O)c3ccccc23)ccc1F)N1CCN(C(=O)C2CC2)CC1 [Olaparib] (first compound max 1 µM, partner max 10 µM)" reportedmeasurement=-0.0372
molecule="COc1cccc(OCCCN)c1-c1cc(Nc2cnc(C#N)cn2)n[nH]1 [Prexasertib] + Cc1cc2ncnn2cc1Nc1ncc2c(n1)n(C1CCOCC1)c(=O)n2C [AZD7648] (first compound max 1 µM, 7x7, partner max 10 µM)" reportedmeasurement=-0.0263
molecule="CC1(C)CCC(CN2CCN(c3ccc(C(=O)NS(=O)(=O)c4ccc(NCC5CCOCC5)c([N+](=O)[O-])c4)c(Oc4cnc5[nH]ccc5c4)c3)CC2)=C(c2ccc(Cl)cc2)C1 [Venetoclax] + COc1cc(Nc2ncc3c(n2)-c2ccc(Cl)cc2C(c2c(F)cccc2OC)=NC3)ccc1C(=O)O [Alisertib] (first compound max 1 µM, 7x7, partner max 10 µM)" reportedmeasurement=0.0892
molecule="COc1cccc(OCCCN)c1-c1cc(Nc2cnc(C#N)cn2)n[nH]1 [Prexasertib] + CCc1c2c(nc3ccc(O)cc13)-c1cc3c(c(=O)n1C2)COC(=O)[C@]3(O)CC [SN-38] (first compound max 1 µM, 7x7, partner max 0.3 µM)" reportedmeasurement=0.153

Quick one: Bliss excess for Cc1c2c(nn1C)CSCc1cc(n(C)n1)CSc1cc(c3ccccc3c1)OCCCc1c(C(=O)O)n(C)c3c-2c(Cl)ccc13 [AZD5991] + Cc1cc2ncnn2cc1Nc1ncc2c(n1)n(C1CCOCC1)c(=O)n2C [AZD7648] (first compound max 1 µM, 7x7, partner max 10 µM) ?
-0.0033

Okay, and C[C@@H]1COCCN1c1cc(C2([S@](C)(=N)=O)CC2)nc(-c2ccnc3[nH]ccc23)n1 [AZD6738] + O=C(c1cc(Cc2n[nH]c(=O)c3ccccc23)ccc1F)N1CCN(C(=O)C2CC2)CC1 [Olaparib] (first compound max 10 µM, 7x7, partner max 10 µM) ?
0.0105

What do we get for CCc1c2c(nc3ccc(O)cc13)-c1cc3c(c(=O)n1C2)COC(=O)[C@]3(O)CC [SN-38] + CN(C)CCCOc1ccc(-c2ccc3ncc4c(c3c2)n(C2CCOCC2)c(=O)n4C)cn1 [AZD0156] (first compound max 0.3 µM, 7x7, partner max 1 µM) ?
0.0502

----------
Test system: NCI-H1755 (Lung Adenocarcinoma)
Assay: Bliss excess, mean over the matrix (fraction); higher = more synergy
The entries below come with measured Bliss excess values attached.
Write the value as a bare number.

compound="COc1cccc(OCCCN)c1-c1cc(Nc2cnc(C#N)cn2)n[nH]1 [Prexasertib] + C=CCn1c(=O)c2cnc(Nc3ccc(N4CCN(C)CC4)cc3)nc2n1-c1cccc(C(C)(C)O)n1 [AZD1775] (first compound max 1 µM, partner max 1 µM)" reportedmeasurement=-0.0104

Given the entry COc1cc2c(cc1OCCCCCOc1cc3c(cc1OC)C(=O)N1C=C(C)C[C@H]1C=N3)N=C[C@@H]1CC(C)=CN1C2=O [SG3199] + O=C(c1cc(Cc2n[nH]c(=O)c3ccccc23)ccc1F)N1CCN(C(=O)C2CC2)CC1 [Olaparib] (first compound max 0.001 µM, 7x7, partner max 10 µM) , what Bliss excess was observed with NCI-H1755 (Lung Adenocarcinoma)?
-0.0207
